All values here come from patent US12365667B2.

Recorded measurements of pIC50, one per entry
- Test system: IFNα-induced STAT phosphorylation (pSTAT5) in human whole blood
- assayDetails: IFNα-Induced STAT Phosphorylation in Human Whole Blood
- Assay type: cell-based
- conditionInfo: Homo sapiens, 1 h incubation with compound, 1000 U/mL recombinant human IFNα A/D for 15 min, pSTAT5 in CD3 positive population, read-out: IFNα-Induced Stat Phosph. (IC50)
- Experimental: IFNα-Induced STAT Phosphorylation in Human Whole Blood After an hour long incubation with compound, human whole blood (drawn with either EDTA or ACD-A as anti-coagulant) was stimulated with 1000 U/mL recombinant human IFNα A/D (R&D Systems 11200-2) for 15 min. The stimulation was stopped by adding Fix/Lyse buffer (BD 558049). […] The amount of pSTAT5 expression was quantitated by median fluorescence intensity after gating on the CD3 positive population.
Keep in mind that pIC50 stands for -log10 of concentration in molar terms.

compound	pIC50
[2H]C([2H])([2H])NC(=O)c1nnc(Nc2cc(C)nc(C)n2)cc1Nc1nc(F)ccc1S(C)(=O)=O	6.32
CNC(=O)c1nnc(Nc2ccc(OC)nn2)cc1Nc1ncccc1S(C)(=O)=O	7.25
[2H]C([2H])([2H])NC(=O)c1nnc(Nc2ccc(OC)nn2)cc1Nc1nc(C)ccc1S(C)(=O)=O	6.98
[2H]C([2H])([2H])NC(=O)c1nnc(NC(=O)C2CC2(Cl)Cl)cc1Nc1ncccc1S(C)(=O)=O (stereo not shown)	5.74
[2H]C([2H])([2H])NC(=O)c1nnc(Nc2ccc(OC(F)F)nn2)cc1Nc1ncccc1S(C)(=O)=O	7.47

Incoming: Endpoint output: pIC50 of `[2H]C([2H])([2H])NC(=O)c1cnc(Nc2ccc(F)cn2)cc1Nc1ncccc1S(C)(=O)=O` . Value?
Outgoing: 7.68

Incoming: Which pIC50 is listed for `[2H]C([2H])([2H])NC(=O)c1nnc(NC(C)=O)cc1Nc1ncccc1S(C)(=O)=O` ?
Outgoing: 7.02
